Tested on: NCI-H460 lung
Reply using exactly one outcome from 1 = active, -1 = inactive

Example entries and their recorded answers appear below.
>>> qualitative_label("C=CC(=O)Nc1cccc(C)c1Nc1cc(-c2cccnc2Cc2c(C)c(OC)cc(OC)c2C)ncn1")
-1
>>> qualitative_label("C[C@]12CC[C@H]3[C@@H](CCC4=CC(=O)CC[C@@H]43)[C@@H]1CC[C@@H]2OC(=O)CCc1ccccc1")
-1
>>> qualitative_label("Nc1ncnc2[nH]ncc12")
-1
>>> qualitative_label("C=CC(=O)N(C)[C@H]1C[C@H]2OC(C)(C1OC)n1c3ccccc3c3c4c(c5c6ccccc6n2c5c31)C(=O)NC4 (some centres undefined)")
1
>>> qualitative_label("O=C(/C(=C/c1ccccc1)CN1CCCCC1)c1ccccc1")
-1
>>> qualitative_label("N#C/C(=C\\c1c(-c2ccccc2)[nH]c2ccccc12)S(=O)(=O)c1ccccc1")
-1

Task: What did this assay record as the result for Cc1ccc(C2=NOC3=c4ccccc4=CSC3=C2c2ccc([N+](=O)[O-])cc2)cc1 ?
Result: -1

Task: What did this assay record as the result for N#Cc1c(N/N=C/c2c(Cl)cccc2Cl)nc(N)nc1N1CCOCC1 ?
Result: -1

Task: What did this assay record as the result for CC(C)(C)c1n[nH]c(=S)n(/N=C/c2ccc(F)c(Oc3ccccc3)c2)c1=O ?
Result: -1

====

Tested on: HOP-92 NSCLC
Test: NCI tumour cell line growth inhibition, 48 h; in the data active = GI50 below about 0.43 µM; inactive = the rest
Reply using exactly one outcome from YES = active, NO = inactive

>>> qualitative_label("Cc1ccc(-c2cc(-c3ccc(C)cc3)nc(NCCNc3ccnc4cc(Cl)ccc34)n2)cc1")
"NO"
>>> qualitative_label("COc1ccc2cc(-c3ccoc(=O)c3-c3cc(OC)c(OC)c(OC)c3)ccc2c1")
"NO"
>>> qualitative_label("COc1cc2c(cc1OCCCCOc1cc3c(cc1OC)C(=O)N1CCC[C@H]1CN3)N=C[C@@H]1CCCN1C2=O")
"YES"
>>> qualitative_label("O=C(/C(=C/c1ccccc1)CN1CCCCC1)c1ccccc1")
"NO"

Could you now look at the following compound, please?
Task: What did this assay record as the result for COc1cccc(C=Nc2cc(C)ccn2)c1O.COc1cccc(C=Nc2cc(C)ccn2)c1O.[Cu] ?
Result: NO

====

System: SR leukemia
Test: NCI tumour cell line growth inhibition, 48 h
PROPERTY LABEL: TGI

Would you please look over these solved cases?
>>> endpoint_value("CCOC(=O)c1c(N2CCCC2)nsc1Nc1ccccc1")
"> 100 µM"
>>> endpoint_value("N#C/C(=C\\c1ccccc1)C(=O)Nc1nnc(-c2ccccc2)o1")
"93.2 µM"
>>> endpoint_value("Cc1cc(=O)[nH]c(NN2C(Cl)C(=O)C2c2ccc(Cl)cc2)n1 (centres undefined)")
"6.22 µM"
>>> endpoint_value("Nc1ncnc2[nH]ncc12")
"> 100 µM"
>>> endpoint_value("O=c1ccc2cc(O)c(O)cc2o1")
"> 100 µM"
>>> endpoint_value("COC(=O)C(Cc1ccccc1)NC(=O)NC(=O)NC(=O)CI (centres undefined)")
"3.67 µM"
>>> endpoint_value("C=C1CC[C@@H]2[C@](C)(COC(C)=O)[C@@H](O)CC[C@@]2(C)[C@@H]1COc1ccc2ccc(=O)oc2c1")
"> 100 µM"
>>> endpoint_value("COCn1c2ccc(OC(C)=O)cc2c2c(=O)oc(N(C)C)nc21")
"> 100 µM"
>>> endpoint_value("Cc1ccc(C(=O)Nc2cccc(C(F)(F)F)c2)cc1Nc1nc(-c2cccnc2)nc2c1cnn2C")
"6.58 µM"
>>> endpoint_value("CCCCCCCCCCCC(=O)OCCOCCOCCOCCOCCOCc1ccc(OC)cc1")
"> 100 µM"

Each molecule below has a reported value. Please supply its TGI.
1. CC(C)(C)c1ccc(OCCCCCCN2CCNCC2)cc1
2. CN(C)c1ccc(C=C2C(=O)OC(C)(C)OC2=O)cc1Br
3. c1ccc(SC(CCCCC(Sc2ccccc2)Sc2ccccc2)Sc2ccccc2)cc1
4. Cc1n[nH]c(=O)c2cc(-c3ccccc3)[nH]c12

Result:
["5.85 µM", "> 100 µM", "> 100 µM", "> 100 µM"]

Each molecule below has a reported value. Please supply its TGI.
1. C/C(=N\Nc1ccc2ccccc2n1)c1ccccn1
2. O=C(c1ccccc1)c1ccc(COc2ccc(C(c3c(O)c4ccccc4oc3=O)c3c(O)c4ccccc4oc3=O)cc2)cc1
3. O=C(NCc1cccnc1)NCc1cccnc1
4. C=CCc1cc(OC)c2c(c1)C(O)CC(c1ccccc1)O2 (centres undefined)

Result:
1: 2.38 µM; 2: 63.9 µM; 3: > 100 µM; 4: > 100 µM

Each molecule below has a reported value. Please supply its TGI.
1. O=[N+]([O-])c1cccc(-c2nc3sccn3c2-c2ccnc(NCCCNS(=O)(=O)c3cccc(F)c3)n2)c1
2. CNC(=O)N1CN(c2ccccc2)C2(CCN(CCCC(=O)c3ccc(F)cc3)CC2)C1=O
3. O=C(NNC1=NCCN1)c1ccco1
4. COc1ccc(N2C(=O)C3c4[nH]c5ccc(C)cc5c4C4CCC(C)CC4C3C2=O)cc1 (centres undefined)
5. COC(=O)C1CC2(CCC1=O)Cc1ccccc1C2=O (centres undefined)
6. O=[N+]([O-])/C=C1\COCc2cc3c(cc21)OCO3
7. O=C(N/N=C/c1ccc2c(c1)CCC2)c1ccccc1O
8. C1=NCCNCCN=Cc2ccc(cc2)OCc2cccc(n2)COc2ccc1cc2

Result:
1. > 100 µM
2. 69.7 µM
3. > 100 µM
4. > 100 µM
5. > 100 µM
6. 61.4 µM
7. > 100 µM
8. > 100 µM

Each molecule below has a reported value. Please supply its TGI.
1. CN(C)c1nc(=Nc2ccc3ccccc3c2)ss1
2. O=C1C=C(Br)c2c(-c3ccccc3)oc3cccc1c23
3. O=C(/C(=C/c1ccc([N+](=O)[O-])cc1)c1ccccc1)c1ccccc1
4. CC1(C)CC(=O)c2c(nc3ccc4ccccc4c3c2-c2ccc(NC(=O)CCCC(=O)Nc3ccc(-c4c5c(nc6ccc7ccccc7c46)CC(C)(C)CC5=O)cc3)cc2)C1
5. COc1ccc(-c2c(N)n(-c3nc4ccccc4s3)c(=O)c3cc([N+](=O)[O-])ccc23)cc1
6. O=C1C2CC=CCC2C(=O)N1n1c(-c2ccccc2)n[nH]c1=O (centres undefined)

Result:
75.3 µM
> 30.8 µM
> 100 µM
> 100 µM
> 100 µM
> 100 µM

====

System: HOP-92 NSCLC
Test: NCI tumour cell line growth inhibition, 48 h
Provide the reported TGI of each item.

>>> endpoint_value("N#Cc1c(N/N=C/c2c(Cl)cccc2Cl)nc(N)nc1N1CCOCC1")
"> 100 µM"

Each compound below has a reported value. Please supply its TGI.
1. O=c1oc2ccccc2c2c(=O)c3ccc(OC/C(=N/O)c4ccc(Cl)cc4)cc3oc12
2. N#CC(C(=O)CCC(=O)Nc1cccc(Cl)c1)c1ccccc1 (configuration not stated)
3. c1ccc(SC(CCCCC(Sc2ccccc2)Sc2ccccc2)Sc2ccccc2)cc1
4. CN1CCN(Cc2ccc(NC(=O)c3cncc(C#Cc4cnc(N)c5ccncc45)c3)cc2C(F)(F)F)CC1
5. Cc1cc2c(C)n(Cc3ccc(Cl)cc3Cl)nc2c(C#N)c1C
6. Cc1n[nH]c(=O)c2cc(-c3ccccc3)[nH]c12
7. COc1nc(N)c(NC2OC(CO)C(O)C2O)c(=O)[nH]1 (configuration not stated)

Result:
["25.1 µM", "> 100 µM", "> 100 µM", "1.93 µM", "36.9 µM", "> 100 µM", "> 100 µM"]

Each compound below has a reported value. Please supply its TGI.
1. Cc1ccc(-c2cc(-c3ccc(C)cc3)nc(NCCNc3ccnc4cc(Cl)ccc34)n2)cc1
2. COC1CC(OS(=O)(=O)c2ccc(C)cc2)C(OC(=O)c2ccccc2)C(C)O1 (configuration not stated)
3. CN(C)c1ccc(/C=N\NC(=O)CSCC(=O)N/N=C/c2ccc(N(C)C)cc2)cc1
4. O=C1C=C(Br)c2c(-c3ccccc3)oc3cccc1c23
5. Fc1ccc2nc3n(c2c1)C(c1c(F)cccc1F)SC3 (configuration not stated)
6. O=c1ccc2cc(O)c(O)cc2o1

Result:
2.73 µM
> 100 µM
> 100 µM
> 100 µM
> 100 µM
> 100 µM

Each compound below has a reported value. Please supply its TGI.
1. Cn1cnc2nc(Cl)nc(NC(C)(C)C(C)(C)O)c21
2. C1=NCCNCCN=Cc2ccc(cc2)OCc2cccc(n2)COc2ccc1cc2
3. CCCn1c(C)nc2c1C(=O)c1ccccc1C2=O

Result:
> 100 µM
> 100 µM
> 100 µM

====

System: M14 melanoma
Experiment: NCI tumour cell line growth inhibition, 48 h
Provide the reported TGI of each item.
Give bare numbers, in µM.

Would you please look over these solved cases?
>>> endpoint_value("N#C/C(=C\\c1c(-c2ccccc2)[nH]c2ccccc12)S(=O)(=O)c1ccccc1")
38.2
>>> endpoint_value("C=C1CC2OC2(C(=O)O[C@H]2CCC3[C@@H]4CCC5=CC(=O)CC[C@]5(C)C4CC[C@@]32C)C1=O (some centres undefined)")
16.6
>>> endpoint_value("CCC1C(c2cc(OC)c(OC)c(OC)c2)c2cc3c(cc2OC1N1CCCC1)OCO3 (centres undefined)")
26.6

Task: Lab request: please report TGI under test system M14 melanoma for COc1ccc(C(OCC2OC(n3ccc(NC(=O)c4ccccc4)nc3=O)C(O)C2O)(c2ccccc2)c2ccccc2)cc1 (centres undefined)
Result: 3.62
